// data source = patent US7919498B2

- target: PI3Kδ (Homo sapiens)
- Construct: Full length p110 subunits of PI3k α, β and δ, N-terminally labeled with polyHis tag; polyHis (N)
- Sequence (O00329 whole entry): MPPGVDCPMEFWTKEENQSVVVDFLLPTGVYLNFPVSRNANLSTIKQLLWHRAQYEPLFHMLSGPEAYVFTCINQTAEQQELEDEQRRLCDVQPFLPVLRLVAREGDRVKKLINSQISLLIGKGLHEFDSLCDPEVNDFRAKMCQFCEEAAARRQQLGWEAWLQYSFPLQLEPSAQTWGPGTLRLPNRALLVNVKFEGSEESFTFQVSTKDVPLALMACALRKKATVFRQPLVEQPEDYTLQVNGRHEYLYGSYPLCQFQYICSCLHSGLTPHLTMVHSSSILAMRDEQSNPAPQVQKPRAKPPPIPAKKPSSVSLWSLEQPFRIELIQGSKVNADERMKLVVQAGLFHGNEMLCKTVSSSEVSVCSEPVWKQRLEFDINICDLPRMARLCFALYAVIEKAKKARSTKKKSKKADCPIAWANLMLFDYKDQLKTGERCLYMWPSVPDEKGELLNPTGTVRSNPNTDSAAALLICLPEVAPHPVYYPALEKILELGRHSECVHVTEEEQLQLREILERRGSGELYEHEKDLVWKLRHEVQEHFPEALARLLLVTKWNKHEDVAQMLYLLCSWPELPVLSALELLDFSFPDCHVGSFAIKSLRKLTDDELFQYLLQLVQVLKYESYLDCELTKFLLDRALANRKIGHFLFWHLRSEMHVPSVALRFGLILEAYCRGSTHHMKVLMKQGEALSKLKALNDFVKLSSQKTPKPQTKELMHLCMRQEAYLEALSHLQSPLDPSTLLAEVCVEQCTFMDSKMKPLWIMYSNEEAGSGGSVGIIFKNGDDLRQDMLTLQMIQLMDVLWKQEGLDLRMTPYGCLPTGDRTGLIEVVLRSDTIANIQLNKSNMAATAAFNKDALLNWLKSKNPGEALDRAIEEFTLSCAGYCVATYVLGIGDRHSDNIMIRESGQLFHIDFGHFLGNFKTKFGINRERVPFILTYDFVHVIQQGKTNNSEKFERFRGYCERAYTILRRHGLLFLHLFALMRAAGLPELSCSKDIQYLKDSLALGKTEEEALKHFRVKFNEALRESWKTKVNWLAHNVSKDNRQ
- Sequence (P27986 whole entry partner): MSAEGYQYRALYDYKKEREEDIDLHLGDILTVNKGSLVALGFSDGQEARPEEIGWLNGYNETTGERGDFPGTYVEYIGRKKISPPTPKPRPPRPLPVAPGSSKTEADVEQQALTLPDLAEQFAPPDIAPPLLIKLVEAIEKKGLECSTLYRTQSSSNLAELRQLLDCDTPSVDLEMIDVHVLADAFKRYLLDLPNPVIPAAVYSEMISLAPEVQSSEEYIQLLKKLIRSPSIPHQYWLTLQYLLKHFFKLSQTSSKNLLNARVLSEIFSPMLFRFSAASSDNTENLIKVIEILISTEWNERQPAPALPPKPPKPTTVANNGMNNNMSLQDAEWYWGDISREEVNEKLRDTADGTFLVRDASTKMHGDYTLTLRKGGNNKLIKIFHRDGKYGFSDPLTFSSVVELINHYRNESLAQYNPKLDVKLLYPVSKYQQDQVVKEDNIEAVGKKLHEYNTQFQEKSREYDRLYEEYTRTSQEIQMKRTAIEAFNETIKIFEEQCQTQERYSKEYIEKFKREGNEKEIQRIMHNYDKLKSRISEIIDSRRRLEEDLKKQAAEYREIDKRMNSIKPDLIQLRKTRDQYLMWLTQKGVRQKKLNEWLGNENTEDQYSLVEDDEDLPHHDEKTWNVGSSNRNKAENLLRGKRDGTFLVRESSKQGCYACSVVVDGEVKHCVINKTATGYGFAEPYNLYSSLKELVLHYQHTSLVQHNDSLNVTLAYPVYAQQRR
- measurement.protocol: In vitro enzyme assay of PI3Kδ (residual ATP bioluminescence)
Field 'label' (enum: y / n). Set to y when IC50 is strictly under 20 nM; else n.

molecule | target | classification
Cc1cccc2nc(-c3ccccc3Cl)c(Cn3nc(-c4cn[nH]c4)c4c(N)ncnc43)nc12 [Example 17] | PI3Kδ (Homo sapiens) | y
Cc1cccc2cc(Cn3nc(C#CC(C)(C)O)c4c(N)ncnc43)c(-c3ccccc3C(F)(F)F)nc12 [Example 14] | PI3Kδ (Homo sapiens) | n
Cc1cccc2cc(Cn3ccc4c(N)ncnc43)c(-c3ccccc3Cl)nc12 [Example 19] | PI3Kδ (Homo sapiens) | n
COc1ccccc1-n1c(Cn2ccc(=O)c3c(N)ncnc32)nc2cccc(Cl)c2c1=O [Example 21] | PI3Kδ (Homo sapiens) | y
Cc1cccc2cc(Cn3nc(-c4cn[nH]c4)c4c(N)ncnc43)c(-c3ccccc3C(F)(F)F)nc12 [Example 12] | PI3Kδ (Homo sapiens) | y
Cc1cccc2cc(Cn3nc(C)c4c(N)ncnc43)c(-c3ccccc3Cl)nc12 [Example 11] | PI3Kδ (Homo sapiens) | n
Cc1cccc2nc(-c3ccccc3Cl)c(Cn3nc(I)c4c(N)ncnc43)nc12 [Example 15] | PI3Kδ (Homo sapiens) | n
Cc1cccc2cc(Cn3nc(I)c4c(N)ncnc43)c(-c3ccccc3F)nc12 [Example 7] | PI3Kδ (Homo sapiens) | y
Nc1ncnc2c1c(I)nn2Cc1cc2cccc(Cl)c2nc1-c1ccccc1C(F)(F)F [Example 6] | PI3Kδ (Homo sapiens) | y
Cc1cccc2cc(Cn3nc(C4CC4)c4c(N)ncnc43)c(-c3ccccc3C(F)(F)F)nc12 [Example 13] | PI3Kδ (Homo sapiens) | n
Cc1cccc2nc(Cn3nc(I)c4c(N)ncnc43)c(-c3ccccc3Cl)nc12 [Example 16] | PI3Kδ (Homo sapiens) | n
Cc1cccc2cc(Cn3ccc(=O)c4c(N)ncnc43)c(-c3ccccc3Cl)nc12 [Example 2] | PI3Kδ (Homo sapiens) | n
Cc1cccc2cc(Cn3nc(-c4cccc(O)c4)c4c(N)ncnc43)c(-c3ccccc3C(F)(F)F)nc12 [Example 8] | PI3Kδ (Homo sapiens) | y
Nc1ncnc2c1c(-c1cccc(O)c1)nn2Cc1cc2cccc(Cl)c2nc1-c1ccccc1Cl [Example 10] | PI3Kδ (Homo sapiens) | y
Nc1ncnc2c1c(I)nn2Cc1cc2cccc(Cl)c2nc1-c1ccccc1Cl [Example 5] | PI3Kδ (Homo sapiens) | y

---

- Test system: human B cells
- measurement.protocol: Human B cells proliferation stimulated by anti-IgM
- Format: cell-based
- condition.context: B-cell; anti-Human IgM + CD40L-LZ, 72 h, 3H thymidine
Parameter IC50: see the listing below.

compound | target | IC50 [µM]
Nc1ncnc2c1c(I)nn2Cc1cc2c(Cl)cccc2nc1-c1ccccc1Cl [Example 25] | human B cells | 0.0934
Cc1nn([C@@H](C)c2cc3cccc(Cl)c3nc2-c2cccc(F)c2)c2ncnc(N)c12 [Example 23] | human B cells | 0.00157
Cc1nn(Cc2cc3cccc(Cl)c3nc2-c2ccccc2C(F)(F)F)c2ncnc(N)c12 [Example 30] | human B cells | 0.0448
Cc1cccc2nc(-c3ccccc3Cl)c(Cn3nc(C#N)c4c(N)ncnc43)nc12 | human B cells | 0.0838
Cc1nn(Cc2cc3c(Cl)cccc3nc2-c2ccccc2C(F)(F)F)c2ncnc(N)c12 [Example 31] | human B cells | 0.136
Cc1cccc2nc(-c3ccccc3Cl)c(Cn3nc(-c4cnn(C)c4)c4c(N)ncnc43)nc12 | human B cells | 0.0198
Cc1cccc2nc(Cn3nc(-c4cnn(C)c4)c4c(N)ncnc43)c(-c3ccccc3Cl)nc12 | human B cells | 0.037
Nc1ncnc2c1c(I)nn2Cc1nc2c(F)cccc2nc1-c1ccccc1Cl | human B cells | 0.818
Nc1ncnc2c1c(I)nn2Cc1nc2cccc(F)c2nc1-c1ccccc1Cl | human B cells | 0.554
Cc1cccc2nc(Cn3nc(C#N)c4c(N)ncnc43)c(-c3ccccc3Cl)nc12 | human B cells | 0.00199
Cn1cc(-c2nn(Cc3cc4c(Cl)cccc4nc3-c3ccccc3Cl)c3ncnc(N)c23)cn1 [Example 26] | human B cells | 0.0467
Nc1ncnc2c1c(-c1cn[nH]c1)nn2Cc1cc2cccc(Cl)c2nc1-c1ccccc1F | human B cells | 0.0182
Cc1cccc2nc(Cn3nc(I)c4c(N)ncnc43)c(-c3cccc(F)c3)c(=O)n12 | human B cells | 0.512
